Measured max response by item
Tested on: NIH3T3
Assay: Cytotoxic Profiling of Annotated Libraries Using Quantitative High-Throughput Screening (AID 1296008); note: % is set by controls: 0 for no effect and ±100 for the full control effect; nearly all actives have a fitted effect of over 60% in size
Conditions: Five cell lines viability, CellTiter-Glo ATP luminescence, 48-72 h; hits give low values
Inconclusive results are not listed.
Express it in %; write the number only.

compound: CC(c1c[nH]c2ccccc12)C(O)C(=O)O (centres undefined)
observed_result: 3.62

Query: Could you tell me which max response is on file for CCC(C)/C=C(C)/C=C/C1=CC2=C(Cl)C(=O)C(C)(OC(C)=O)C(=O)C2=CN1CCCC(=O)O (centres undefined) ?
Response: -0.464

Query: Please look up its max response: CC(C)(O)c1ccc2c(c1)C(=O)CC1[C@](C)(CO)CCC[C@]21C (some centres undefined)
Response: -3.87

meta.source: PubChem BioAssay (NCATS)
